Listed below: IC50 values for each entry.
Target sequence: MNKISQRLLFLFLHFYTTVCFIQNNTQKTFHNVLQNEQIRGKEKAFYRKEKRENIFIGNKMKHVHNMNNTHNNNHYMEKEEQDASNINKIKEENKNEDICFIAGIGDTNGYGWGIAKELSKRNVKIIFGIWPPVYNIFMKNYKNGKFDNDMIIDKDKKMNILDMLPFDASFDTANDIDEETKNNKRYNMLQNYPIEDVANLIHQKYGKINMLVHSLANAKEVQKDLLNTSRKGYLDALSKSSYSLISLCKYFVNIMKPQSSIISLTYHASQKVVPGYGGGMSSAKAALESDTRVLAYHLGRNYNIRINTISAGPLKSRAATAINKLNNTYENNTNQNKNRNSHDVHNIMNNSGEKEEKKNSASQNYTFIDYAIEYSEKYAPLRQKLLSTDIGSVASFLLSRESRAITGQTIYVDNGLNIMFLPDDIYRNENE

Past entries and their recorded results:
[
  {
    "smiles_text": "Oc1cc(Cl)ccc1Oc1ccccc1CNCc1ccccc1",
    "IC50": "10 µM"
  },
  {
    "smiles_text": "CNCc1cc(Cl)ccc1Oc1ccc(Cl)cc1O",
    "IC50": "27 µM"
  },
  {
    "smiles_text": "Oc1cc(Cl)ccc1Oc1ccc(Cl)cc1CN1CCN(c2ccccc2)CC1",
    "IC50": "6.1 µM"
  }
]

Complete the entry with IC50 for Oc1cc(Cl)ccc1Oc1ccccc1CNCc1ccc(Cl)cc1 35 µM

State its IC50: CC(C)(NCc1ccc(Cl)cc1)c1cc(Cl)ccc1Oc1ccc(Cl)cc1O 7.2 µM

Name the recorded IC50 of the compound listed here: Oc1cc(Cl)ccc1Oc1ccccc1CNc1cccc2ccccc12 11 µM

* * *

Protein target, amino acids: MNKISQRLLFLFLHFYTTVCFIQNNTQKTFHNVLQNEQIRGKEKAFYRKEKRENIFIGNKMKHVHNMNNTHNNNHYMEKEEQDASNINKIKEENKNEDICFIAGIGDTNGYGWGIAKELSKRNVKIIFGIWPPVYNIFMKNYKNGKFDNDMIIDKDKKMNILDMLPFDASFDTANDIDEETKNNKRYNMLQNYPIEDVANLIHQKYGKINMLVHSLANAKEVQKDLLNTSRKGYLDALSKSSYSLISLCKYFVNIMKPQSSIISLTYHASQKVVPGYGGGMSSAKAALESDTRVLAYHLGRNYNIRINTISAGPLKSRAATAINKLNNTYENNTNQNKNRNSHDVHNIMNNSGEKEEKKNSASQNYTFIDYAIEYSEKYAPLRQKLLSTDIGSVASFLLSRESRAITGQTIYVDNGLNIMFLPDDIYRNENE
quantity_kind: pIC50
Please express pIC50 as -log10 of the molar concentration.

[
  {
    "smiles_text": "CN(C)Cc1cc(Cl)ccc1Oc1ccc(Cl)cc1O",
    "val": 4.72
  },
  {
    "smiles_text": "Oc1cc(Cl)ccc1Oc1ccccc1CNc1ccc2ccccc2c1",
    "val": 4.34
  }
]

Now turn to the next molecule.
Give pIC50 for Oc1cc(Cl)ccc1Oc1ccc(Cl)cc1CNCc1ccc2c(c1)CCO2 5.05
